Molecular target: protein kinase A (PKA)
Assay: cell-based or functional assay
Square brackets hold non-standard residues; d marks the D form. Ends that are not written are not given here. * marks the point of attachment. Lithocholoyl = C[C@H](CCC(=O)*)[C@H]1CC[C@H]2[C@@H]3CC[C@@H]4C[C@H](O)CC[C@]4(C)[C@H]3CC[C@]12C; Biotin = O=C1N[C@H]2[C@H](CS[C@H]2CCCCC(=O)*)N1; hLeu = CC(C)CC[C@H](N)C(=O)O; Nva = CCC[C@H](N)C(=O)O; Dap = NC[C@H](N)C(=O)O
// values below are reported IC50, kinase assay PKA

- Biotin-RPR[Nva]Y[Dap][hLeu]-NH2 [PTR 6158]: > 100 µM
- {H‑1‑adamantyl}-RPR[Nva]YA[hLeu]-NH2 [PTR 6200]: > 10 µM
- RPR[Nva]YA[hLeu]-NH2 (not fully specified (N-terminus)) [PTR 6202]: > 10 µM
- {S‑carbofluorescin}-RPR[Nva]Y[Dap][hLeu]-NH2 [PTR 6182]: > 10 µM
- Lithocholoyl-RPR[Nva]YA[hLeu]-NH2 (SMILES CCC[C@H](NC(=O)[C@H](CCCNC(=N)N)NC(=O)[C@@H]1CCCN1C(=O)[C@H](CCCNC(=N)N)NC(=O)CC[C@@H](C)[C@H]1CC[C@H]2[C@@H]3CC[C@@H]4C[C@H](O)CC[C@]4(C)[C@H]3CC[C@]12C)C(=O)N[C@@H](Cc1ccc(O)cc1)C(=O)N[C@@H](C)C(=O)N[C@@H](CCC(C)C)C(N)=O) [PTR 6194]: > 10 µM
- {Galactopyranosyl‑O‑CO}-RPR[Nva]YA[hLeu]-NH2 [PTR 6224]: 8 µM

Bench note: what IC50, kinase assay PKA did Lithocholoyl-GRPR[Nva]YA[hLeu]-NH2 [PTR 6192] show?
> 10 µM

Bench note: what IC50, kinase assay PKA did Lauryl-RPR[Nva]Y[Dap][hLeu]-NH2 [PTR 6160] show?
50 µM

The values you see were collected from patent US20070078092A1.
